Recorded viability, T/C values for a group of compounds are listed next.
Tested on: HUVEC/MSC spheroids viability
assay.overview: Human HUVEC/MSC cell line growth inhibition [KRAS2];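 further: percent of DMSO vehicle control luminescence so 100% = untreated viability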
condition.context: second compound 10 µM; first compound 3.16 µM; hits give low values
Text: Multicellular complex tumor spheroid response to RAS pathway inhibitors in combination with a targeted agents in patient-derived cell lines with oncogenic KRAS variants from multiple cancer types A high-throughput screen of multi-cell type tumor spheroids was designed to identify active combinations of targeted small molecules and KRAS pathway inhibitors. […] Compounds. […] If the clinical Cmax for an agent had not been determined, the highest concentration tested was 10 microM. […]

compound	unit.string	viability, T/C
Cn1nccc1Nc1nccc(-c2cc3c(s2)C(C)(C)N(CCN2CCOCC2)C3=O)n1 + CNCc1ccccc1-c1csc(C(C)Nc2nc(C)nc3cc(OC)c(OC)cc23)c1	%	0.37
Cn1nccc1Nc1nccc(-c2cc3c(s2)C(C)(C)N(CCN2CCOCC2)C3=O)n1 + CC1OCC2(CCN(c3cnc(Sc4ccnc(N)c4Cl)c(N)n3)CC2)C1N	%	21.5
COc1cc2nccc(Oc3ccc(NC(=O)C4(C(=O)Nc5ccc(F)cc5)CC4)cc3)c2cc1OC + COc1cc2nc(C)nc(NC(C)c3cc(N)cc(C(F)(F)F)c3)c2cc1OC1CCOC1	%	35.1
CC1(C)CCC(CN2CCN(c3ccc(C(=O)NS(=O)(=O)c4ccc(NCC5CCOCC5)c([N+](=O)[O-])c4)c(Oc4cnc5[nH]ccc5c4)c3)CC2)=C(c2ccc(Cl)cc2)C1 + C=CC(=O)N1CCN(c2nc(=O)n(-c3c(C)ccnc3C(C)C)c3nc(-c4c(O)cccc4F)c(F)cc23)C(C)C1	%	93.6
COc1cc2nccc(Oc3ccc(NC(=O)C4(C(=O)Nc5ccc(F)cc5)CC4)cc3)c2cc1OC + C=CC(=O)N1CCN(c2nc(=O)n(-c3c(C)ccnc3C(C)C)c3nc(-c4c(O)cccc4F)c(F)cc23)C(C)C1	%	123
COc1cc(Nc2ncc3c(n2)-c2ccc(Cl)cc2C(c2c(F)cccc2OC)=NC3)ccc1C(=O)O + CNCc1ccccc1-c1csc(C(C)Nc2nc(C)nc3cc(OC)c(OC)cc23)c1	%	0.41
CC(C)NCC(C(=O)N1CCN(c2ncnc3c2C(C)CC3O)CC1)c1ccc(Cl)cc1 (configuration not stated) + C=CC(=O)N1CCN(c2nc(=O)n(-c3c(C)ccnc3C(C)C)c3nc(-c4c(O)cccc4F)c(F)cc23)C(C)C1	%	65

====

Test system: HUVEC/MSC spheroids viability
assay.overview: Human HUVEC/MSC cell line growth inhibition [KRAS2];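 further: percent of DMSO vehicle control luminescence so 100% = untreated viability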
condition.context: second compound 1 µM; first compound 0.0316 µM; hits give low values
Recorded viability, T/C values for a group of compounds are listed next.

compound	viability, T/C / %
CC(C)n1nc(-c2ccc3oc(N)nc3c2)c2c(N)ncnc21 + C=CC(=O)N1CCN(c2nc(=O)n(-c3c(C)ccnc3C(C)C)c3nc(-c4c(O)cccc4F)c(F)cc23)C(C)C1	65
COc1cc2nccc(Oc3ccc(NC(=O)C4(C(=O)Nc5ccc(F)cc5)CC4)cc3)c2cc1OC + C=CC(=O)N1CCN(c2nc(=O)n(-c3c(C)ccnc3C(C)C)c3nc(-c4c(O)cccc4F)c(F)cc23)C(C)C1	87
Cn1ncnc1[C@H]1c2n[nH]c(=O)c3cc(F)cc(c23)N[C@@H]1c1ccc(F)cc1 + CNCc1ccccc1-c1csc(C(C)Nc2nc(C)nc3cc(OC)c(OC)cc23)c1	75.9
